Reference source: ChEMBL document CHEMBL4017537

# method_description: Cmax in CD-1 mouse at 5 mg/kg administered via oral gavage after 24 hrs by LC-MS/MS analysis
# Type: ADME, organism-based
# Parameters: dose 5 mg/kg, route oral
# experimental_setup: in vivo
property_name: Cmax (ng/mL)
Provide only the numeric value, understood in ng/mL.

Asked: Recorded Cmax of `COc1ccc(Br)c2c1B(O)O[C@@H]2CN.Cl` , please.
Given back: 980

* * *

# method_description: AUC (0 to infinity) in CD-1 mouse at 5 mg/kg, iv after 24 hrs by LC-MS/MS analysis
# Assay type: ADME, organism-based
# Parameters: dose 5 mg/kg, route intravenous, time infinity
# experimental_setup: in vivo
property_name: AUC(0-inf)
Note: state the figure and append the unit.

Asked: Any idea what AUC(0-inf) was measured for `COc1ccc(Br)c2c1B(O)O[C@@H]2CN.Cl` ?
Given back: 5840 ng·h/mL

* * *

Could you please report measured Tmax for the items listed next?
# method_description: Tmax in C57BL/6 mouse at 30 mg/kg administered as single dose via oral gavage measured up to 24 hrs by LC-MS/MS analysis
# Assay type: ADME, organism-based
# experimental_setup: in vivo
Report the value in min with no unit label.

Asked: Dear colleague, I am looking for the recorded Tmax of the following compound: `Cl.NC[C@H]1OB(O)c2c(OCCO)ccc(Cl)c21`
Given back: 54

Asked: Let us now turn to `Cl.NC[C@H]1OB(O)c2c3c(cc(Cl)c21)OCCO3`
Given back: 60

* * *

# method_description: Volume of distribution at steady state in C57BL/6 mouse at 5.5 mg/kg, iv administered as single dose measured up to 24 hrs by LC-MS/MS analysis
# Format: ADME, organism-based
# experimental_setup: in vivo, read-out: Vdss
property_name: Vd (L/kg)
Give just the numeric value; L/kg need not be written.

Asked: Consider the compound `Cl.NC[C@H]1OB(O)c2c(OCCO)ccc(Cl)c21` and give its measured Vd.
Given back: 2.3

* * *

# method_description: Toxicity in mouse
# Assay type: organism-based
# experimental_setup: in vivo
property_name: MTD
Don't forget the unit after the value.

Asked: State the recorded MTD for this entry: `Cl.NC[C@H]1OB(O)c2c(OCCO)ccc(Cl)c21`
Given back: 300 mg/kg

* * *

# study_target: Leucine--tRNA ligase (Mycobacterium tuberculosis (strain ATCC 25618 / H37Rv))
# Sequence (P9WFV1 whole entry): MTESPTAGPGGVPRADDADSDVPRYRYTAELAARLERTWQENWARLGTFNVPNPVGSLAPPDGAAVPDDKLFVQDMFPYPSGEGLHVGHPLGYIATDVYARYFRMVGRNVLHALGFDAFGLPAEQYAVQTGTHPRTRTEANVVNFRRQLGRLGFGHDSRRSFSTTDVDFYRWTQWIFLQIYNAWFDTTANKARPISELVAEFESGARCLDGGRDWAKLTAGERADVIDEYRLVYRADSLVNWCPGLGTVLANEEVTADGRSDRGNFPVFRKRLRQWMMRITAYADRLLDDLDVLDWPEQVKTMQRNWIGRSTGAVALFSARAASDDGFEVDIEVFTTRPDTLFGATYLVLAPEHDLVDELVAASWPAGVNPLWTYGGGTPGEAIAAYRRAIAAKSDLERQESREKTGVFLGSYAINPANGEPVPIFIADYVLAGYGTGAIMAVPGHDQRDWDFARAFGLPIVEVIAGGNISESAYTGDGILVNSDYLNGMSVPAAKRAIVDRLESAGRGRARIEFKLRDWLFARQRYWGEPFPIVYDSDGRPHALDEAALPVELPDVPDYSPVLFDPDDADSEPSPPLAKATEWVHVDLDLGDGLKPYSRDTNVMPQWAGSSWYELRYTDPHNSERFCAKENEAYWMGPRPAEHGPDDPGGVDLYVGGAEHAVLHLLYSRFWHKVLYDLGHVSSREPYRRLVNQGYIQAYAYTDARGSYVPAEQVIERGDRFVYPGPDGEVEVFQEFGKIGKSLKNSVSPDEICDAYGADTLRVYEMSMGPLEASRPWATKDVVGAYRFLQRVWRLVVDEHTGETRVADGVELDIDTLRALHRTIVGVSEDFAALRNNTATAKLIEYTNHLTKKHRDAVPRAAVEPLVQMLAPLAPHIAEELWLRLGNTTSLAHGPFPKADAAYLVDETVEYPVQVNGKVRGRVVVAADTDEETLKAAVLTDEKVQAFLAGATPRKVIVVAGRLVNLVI
# method_description: Inhibition of Mycobacterium tuberculosis H37Rv N-terminal 6His-tagged LeuRS expressed in Escherichia coli BL21(DE3) assessed as L-[14C]leucine incorporation in to Escherichia coli tRNA after 20 mins by liquid scintillation counting analysis
property_name: IC50 (µM)
# number only, unit µM dropped from output

Asked: What is its IC50 for Leucine--tRNA ligase (Mycobacterium tuberculosis (strain ATCC 25618 / H37Rv))? Entry: NCC1OB(O)c2c(Oc3ccc(Br)cc3)ccc(Br)c21 (racemic)
Given back: 0.69

Asked: Here is the next compound: `COc1ccc(Br)c2c1B(O)O[C@@H]2CN.Cl`
Given back: 0.074

Asked: Also, `COc1ccc(Cl)c2c1B(O)O[C@@H]2CN` please.
Given back: 0.15

Asked: How about NCC1OB(O)c2c3c(cc(Br)c21)OCCO3 (racemic) ?
Given back: 0.092

Asked: `NC[C@H]1OB(O)c2c(OCCCO)ccc(Br)c21` , same question.
Given back: 0.16

Asked: Next up: NCC1OB(O)c2cc(OCCO)cc(Br)c21 (racemic)
Given back: 0.89

Asked: Also, `CCOc1ccc(Br)c2c1B(O)O[C@@H]2CN` please.
Given back: 0.075

Asked: Item: `Cl.NC[C@H]1OB(O)c2c3c(cc(Cl)c21)OCCO3`
Given back: 0.046

Asked: Same question for `CCCOc1ccc(Br)c2c1B(O)O[C@@H]2CN` please.
Given back: 0.24

Asked: Could you do the same for NCC1OB(O)c2c(OCCc3ccccc3)ccc(Br)c21 (racemic) , please?
Given back: 0.47

Asked: Further, for NCC1OB(O)c2c3c(cc(Br)c21)OCO3 (racemic) ?
Given back: 0.61

Asked: Same again, this time with `NC[C@H]1OB(O)c2c(OCCCO)ccc(Cl)c21`
Given back: 0.47

Asked: And for NCC1OB(O)c2c3c(cc(Cl)c21)OCCO3 (racemic) ?
Given back: 0.13

Asked: Same question for `NC[C@@H]1OB(O)c2c(OCCO)ccc(Br)c21` please.
Given back: 14.2

Asked: What would you report for `CCCCOc1ccc(Br)c2c1B(O)O[C@@H]2CN` ?
Given back: 0.2

Asked: Here is the next compound: `NC[C@H]1OB(O)c2c3c(cc(Br)c21)OCCO3`
Given back: 0.12

Asked: What about NCC1OB(O)c2c(OCc3ccccc3)ccc(Br)c21 (racemic) ?
Given back: 0.44

Asked: Also need CCOc1cc(Br)c2c(c1)B(O)OC2CN (racemic) , thanks.
Given back: 0.26

Asked: Next: `NC[C@H]1OB(O)c2c(OCCO)ccc(Br)c21`
Given back: 0.12

Asked: Try the compound NCC1OB(O)c2cc(OCCCO)cc(Br)c21 (racemic)
Given back: 0.37

Asked: Then this compound: `NC[C@@H]1OB(O)c2c(OCCO)ccc(Cl)c21`
Given back: 10

Asked: Can you check NCC1OB(O)c2c(OCCF)ccc(Br)c21 (racemic) next?
Given back: 0.26

Asked: Check NCC1OB(O)c2c(OCCF)ccc(Cl)c21 (racemic) too.
Given back: 0.076

Asked: Note, next up: `NC[C@@H]1OB(O)c2c3c(cc(Cl)c21)OCCO3`
Given back: 12.6

Asked: Same read-out for NCC1OB(O)c2c(OCCc3ccccc3)ccc(Cl)c21 (racemic) ?
Given back: 0.72

Asked: What do you get for NCC1OB(O)c2c(OCC(F)F)ccc(Cl)c21 (racemic) ?
Given back: 0.29

Asked: NCC1OB(O)c2c(OCc3ccccc3)ccc(Cl)c21 (racemic) ?
Given back: 0.32

Asked: Same for NCC1OB(O)c2cc(OCCCO)cc(Cl)c21 (racemic)
Given back: 0.44

Asked: What do we get for `CCOc1ccc(Cl)c2c1B(O)O[C@@H]2CN` ?
Given back: 0.056

Asked: Then NCC1OB(O)c2c(OCCO)ccc(Br)c21 (racemic) ?
Given back: 0.15

Asked: Next compound: CCOc1cc(Cl)c2c(c1)B(O)OC2CN (racemic)
Given back: 0.63

Asked: # iterate: NCC1OB(O)c2c3c(cc(Cl)c21)OCO3 (racemic)
Given back: 0.25

Asked: Queued: `Cl.NC[C@H]1OB(O)c2c(OCCO)ccc(Cl)c21`
Given back: 0.2

Asked: Cool, now CCCOc1cc(Br)c2c(c1)B(O)OC2CN (racemic)
Given back: 0.37

Asked: Repeat for the following compound: NCC1OB(O)c2c(OCCO)ccc(Cl)c21 (racemic)
Given back: 0.24

Asked: For `CCCCOc1ccc(Cl)c2c1B(O)O[C@@H]2CN` then?
Given back: 0.27
